- tested-target: T1, MET928 (cMET protein derived from construct 25-928) (human, UniProt P08581 25-928)
- T1 construct: MET ectodomain, residues 1-24 are the leader; produced in Lec 8 cells; background text says the ectodomain is furin-cleaved into alpha (25-307) and beta chains; biotinylated form used in selections; also called MET928 extracellular domain; Met extracellular domain
- T1 sequence (P08581 25-928): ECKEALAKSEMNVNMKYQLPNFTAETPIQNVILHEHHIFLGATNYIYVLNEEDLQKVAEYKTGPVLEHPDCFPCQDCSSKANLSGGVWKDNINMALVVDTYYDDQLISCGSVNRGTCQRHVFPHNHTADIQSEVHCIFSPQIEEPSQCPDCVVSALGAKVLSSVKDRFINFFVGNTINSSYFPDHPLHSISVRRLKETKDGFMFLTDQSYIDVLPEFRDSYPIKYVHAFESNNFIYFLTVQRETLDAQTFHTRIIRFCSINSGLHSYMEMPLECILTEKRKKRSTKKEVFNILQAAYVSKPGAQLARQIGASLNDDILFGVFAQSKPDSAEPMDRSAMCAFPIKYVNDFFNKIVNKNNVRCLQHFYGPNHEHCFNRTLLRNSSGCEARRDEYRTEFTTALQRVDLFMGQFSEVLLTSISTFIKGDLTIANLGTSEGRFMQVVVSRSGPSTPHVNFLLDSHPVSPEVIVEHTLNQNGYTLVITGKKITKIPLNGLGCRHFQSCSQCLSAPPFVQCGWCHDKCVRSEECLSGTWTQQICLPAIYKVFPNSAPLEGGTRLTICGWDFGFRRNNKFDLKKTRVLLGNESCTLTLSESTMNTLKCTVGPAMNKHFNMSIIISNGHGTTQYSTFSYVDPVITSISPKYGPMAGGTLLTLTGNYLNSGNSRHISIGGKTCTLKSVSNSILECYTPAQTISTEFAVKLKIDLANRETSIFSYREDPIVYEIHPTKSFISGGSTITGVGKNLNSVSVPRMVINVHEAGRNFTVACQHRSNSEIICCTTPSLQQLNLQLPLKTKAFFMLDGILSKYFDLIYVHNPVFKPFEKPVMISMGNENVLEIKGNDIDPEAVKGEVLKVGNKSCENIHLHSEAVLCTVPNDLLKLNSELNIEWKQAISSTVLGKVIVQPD
- method: ELISA, soluble scFv
readout-kind: binding result

107_C6 (scFv, not shown: 6xHis/tri-FLAG tags) scFv: QMQLVQSGAEVKKPGAPVKVSCKVSGYTFTDYYMHWVQQAPGKGLEWMGLVDPEDGETIYAEKFQGRVTITADTSTDTAYMELSSLRSEDTAVYYCATDATTPYWGMSVWGQGTLVTVSSLEGGGGSGGGGSGGGASDIQMTQSPSSLSASVGDRVTITCQASQDISNYLNWYQQKPGRAPKVLIYDASNLETGVPSRFSGSGSGTEFTLTISNLRPDDFATYYCQQGDSFPLTFGGGTKVEIK | binds
110_B8 (scFv, not shown: 6xHis/tri-FLAG tags) scFv: QMQLVQSGAEVKKPGAPVKVSCKVSGYTFTDYYMHWVQQAPGKGLEWMGLVDPEDGETIYAEKFQGRVTITADTSTDTAYMELSSLRSEDTAVYYCATDATTPYWGMMLWGQGTLVTVSSLEGGGGSGGGGSGGGASDIQMTQSPSSLSASVGDRVTITCQASQDISNYLNWYQQKPGRAPKVLIYDASNLETGVPSRFSGSGSGTEFTLTISNLRPDDFATYYCQQGDSFPLTFGGGTKVEIK | binds
